FYI, the data here is from ChEMBL document CHEMBL1130564.

Target protein (sequence): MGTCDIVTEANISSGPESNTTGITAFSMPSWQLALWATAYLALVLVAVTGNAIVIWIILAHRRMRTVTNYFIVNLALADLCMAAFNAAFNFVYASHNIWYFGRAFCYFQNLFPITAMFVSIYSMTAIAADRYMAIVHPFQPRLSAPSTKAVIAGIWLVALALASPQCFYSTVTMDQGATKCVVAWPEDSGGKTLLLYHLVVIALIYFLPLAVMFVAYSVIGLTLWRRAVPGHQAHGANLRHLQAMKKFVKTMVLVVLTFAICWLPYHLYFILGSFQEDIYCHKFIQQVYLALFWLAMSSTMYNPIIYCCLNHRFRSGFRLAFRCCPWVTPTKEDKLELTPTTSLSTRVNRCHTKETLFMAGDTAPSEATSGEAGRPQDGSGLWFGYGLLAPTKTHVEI

{"SMILES_ENTRY": "O=C(OCc1cc(C(F)(F)F)cc(C(F)(F)F)c1)[C@H](Cc1c[nH]c2ccccc12)NC(=O)[C@H]1C[C@H](O)CN1C(=O)c1cn(CCCCc2nnn[n-]2)c2ccccc12.[K+]", "Ki, µM": 4.2}
